TARGET_SYSTEM: human recombinant H-PGDS (Homo sapiens, UniProt O60760)
Sequence (O60760 whole entry): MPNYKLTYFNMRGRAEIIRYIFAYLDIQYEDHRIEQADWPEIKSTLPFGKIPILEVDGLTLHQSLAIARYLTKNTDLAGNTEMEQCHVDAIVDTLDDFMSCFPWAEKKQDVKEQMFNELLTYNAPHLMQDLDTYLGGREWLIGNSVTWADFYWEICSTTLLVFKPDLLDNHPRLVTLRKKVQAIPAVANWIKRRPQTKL
METHOD_NOTES: Fluorescence Intensity h-PGDS TBA Enzyme Assay
Format: biochemical
ASSAY_CONDITIONS: 1:175,000 human recombinant H-PGDS, highest inhibitor concentration typically 1 μM
MEASURED_ATTRIBUTE: IC50 (nM)
Respond numerically; units are nM and should not be typed.

I am curious: what IC50 value has been reported for COc1ccc(C(NC(=O)c2ccc(-c3cccc(F)c3)nc2)C2CC2)cc1 (stereo not drawn) ? 99.9

Next entry: CCOC(=O)CC(NC(=O)c1ccc(-c2cccc(F)c2)nc1)c1ccccc1Cl (stereo not drawn) 127

Let us now turn to O=C(NCc1cn2ncsc2n1)c1ccc(-c2cccc(F)c2)nc1 79.2

And then CN(C)C(=O)CNC(=O)c1ccc(-c2cccc(F)c2)nc1 , what is it? 88

Try this compound next: COc1cccc(-c2ccc(C(=O)Nc3ccncc3)cn2)c1 87.3

Then what about the compound CN(C)CCCCCNC(=O)c1ccc(-c2cccc(F)c2)nc1 ? 90.3

* * *

TARGET_SYSTEM: human recombinant H-PGDS (Homo sapiens, UniProt O60760)
METHOD_NOTES: Fluorescence Intensity h-PGDS TBA Enzyme Assay
Type: biochemical
ASSAY_CONDITIONS: 1:175,000 human recombinant H-PGDS, highest inhibitor concentration typically 1 μM
MEASURED_ATTRIBUTE: IC50

Looking for the measured IC50 of CC(C)(C)C(=O)CNC(=O)c1ccc(-c2cccc(F)c2)nc1 , can you help? 29.6 nM

Another compound to look at: O=C(NCCCCO)c1ccc(-c2cccc(F)c2)nc1 20.1 nM

Another: Cc1cccc(-c2ccc(C(=O)Nc3ccncc3)cn2)c1 6.51 nM

What about COC(C)(C)CNC(=O)c1ccc(-c2cccc(C)c2)nc1 ? 137 nM

Next up: CSc1ccc(CNC(=O)c2ccc(-c3ccccc3)nc2)cc1 17.5 nM

What about COc1ccc(CNC(=O)c2ccc(-c3ccc(F)cc3)nc2)cc1 ? 377 nM

Next compound: CC(C)N1CCC(CNC(=O)c2ccc(-c3cccc(F)c3)nc2)CC1 108 nM

Can you handle O=C(NCc1ccc(Cl)cc1)c1ccc(-c2ccccc2)nc1 [Example 517, N-(4-Chlorobenzyl)-6-phenylnicotinamide] next? 11.8 nM

Then O=C(Nc1cccnc1)c1ccc(-c2cccc(F)c2)nc1 ? 3.94 nM

Now this one: COc1cc(F)cc(-c2ccc(C(=O)NCC3CCN(C(C)=O)CC3)cn2)c1 119 nM

And what about the compound COc1cccc(-c2ccc(C(=O)NCc3ccco3)cn2)c1 ? 333 nM

Now the compound O=C(NCCN1CCCC1)c1ccc(-c2ccc(F)cc2)nc1 ≥ 1000 nM

Now the same for O=C(NCCN1CCNC1=O)c1ccc(-c2cccc(F)c2)nc1 32 nM

Try this compound too: CCOC(=O)C(CNC(=O)c1ccc(-c2ccc(F)cc2)nc1)C1CCCC1 (stereo not drawn) 316 nM

Also, Cc1cccc(-c2ccc(C(=O)NCc3ccc(Cl)c(Cl)c3)cn2)c1 please. 178 nM

* * *

TARGET_SYSTEM: human recombinant H-PGDS (Homo sapiens)
METHOD_NOTES: Fluorescence Intensity h-PGDS TBA Enzyme Assay
Assay type: biochemical
ASSAY_CONDITIONS: 1:175,000 human recombinant H-PGDS, highest inhibitor concentration typically 1 μM
MEASURED_ATTRIBUTE: IC50 (nM)
Write it as a number; the unit nM goes unstated.

What does the record list as IC50 for COc1cc(F)cc(-c2ccc(C(=O)NCCCN3CCCC3=O)cn2)c1 [Example 543] ? 104

How about O=C(NCCN1CCCC(CO)C1)c1ccc(-c2cccc(F)c2)nc1 (stereo not shown) [Example 18] ? 31.1

Let us now turn to COc1cccc(-c2ccc(C(=O)NCc3ccc(-n4cncn4)cc3)cn2)c1 [Example 291] 203

Check CNS(=O)(=O)c1ccc(CNC(=O)c2ccc(-c3cccc(C)c3)nc2)cc1 [Example 218] too. 27.6

Item: O=C(NCC1CCCN(c2ccccn2)C1)c1ccc(-c2cc(F)cc(F)c2)nc1 (stereo not shown) [Example 570] 32.5

Queued: COc1ccc(CNC(=O)c2ccc(-c3cccc(F)c3)nc2)cc1 [Example 414] 35.3
